- target_desc: T1, human IL-13 R130Q variant (R110Q of the mature chain) (human, UniProt P35225 35-146, Biotinylated on amines (NHS-LC-biotin, 4:1) in ELISA, panning and competition assays. The letters are unchanged.)
- T1 construct: R130Q counts from Met 1 of the signal peptide, R110Q on the mature chain; Bought from Peprotech; also called IL-13 R110Q; b-R130Q
- assay_comment: single-point (10 nM) phage Fab ELISA on biotinylated IL-13 R130Q
Think of 200% as a floor: if % of Lc16Hc7 stands on it or above, it is Met; beneath it, Not met.

hey, is % of Lc16Hc7 for this one >= 200%? Phage # 75 Fab (IL-13-142 library) (Fab, V domains shown, Fab on phage pIX) VH: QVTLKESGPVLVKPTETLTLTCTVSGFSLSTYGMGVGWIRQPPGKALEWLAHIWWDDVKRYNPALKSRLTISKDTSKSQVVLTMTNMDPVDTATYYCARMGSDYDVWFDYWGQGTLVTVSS VL: DIQMTQSPSTLSASVGDRVTITCRASKSISKYLAWYQQKPGKAPKLLIYSGSTLQSGVPSRFSGSGSGTEFTLTISSLQPDDFATYYCQQLSYEPYTFGGGTKVEIK
Met

hey, is % of Lc16Hc7 for this one >= 200%? Phage # 93 Fab (IL-13-142 library) (Fab, V domains shown, Fab on phage pIX) VH: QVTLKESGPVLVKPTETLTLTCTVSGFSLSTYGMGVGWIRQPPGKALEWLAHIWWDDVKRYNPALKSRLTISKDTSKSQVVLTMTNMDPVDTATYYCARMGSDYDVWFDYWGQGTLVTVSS VL: DIQMTQSPSTLSASVGDRVTITCRASKSISKYLAWYQQKPGKAPKLLIYSGSTLQSGVPSRFSGSGSGTEFTLTISSLQPDDFATYYCQQHESGPYTFGGGTKVEIK
Met

hey, is % of Lc16Hc7 for this one >= 200%? Phage # 85 Fab (IL-13-142 library) (Fab, V domains shown, Fab on phage pIX) VH: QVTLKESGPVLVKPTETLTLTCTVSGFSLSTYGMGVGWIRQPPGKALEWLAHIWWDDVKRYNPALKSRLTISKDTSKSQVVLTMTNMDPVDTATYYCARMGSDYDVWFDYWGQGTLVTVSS VL: DIQMTQSPSTLSASVGDRVTITCRASKSISKYLAWYQQKPGKAPKLLIYSGSTLQSGVPSRFSGSGSGTEFTLTISSLQPDDFATYYCQQHMWGPYTFGGGTKVEIK
Met

hey, is % of Lc16Hc7 for this one >= 200%? Phage # 33 Fab (IL-13-142 library) (Fab, V domains shown, Fab on phage pIX) VH: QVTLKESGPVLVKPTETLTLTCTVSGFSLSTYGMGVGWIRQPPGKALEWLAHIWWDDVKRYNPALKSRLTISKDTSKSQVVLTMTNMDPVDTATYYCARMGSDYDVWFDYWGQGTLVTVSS VL: DIQMTQSPSTLSASVGDRVTITCRASKSISKYLAWYQQKPGKAPKLLIYSGSTLQSGVPSRFSGSGSGTEFTLTISSLQPDDFATYYCQQHDWGPYTFGGGTKVEIK
Not met
